Data credit: patent US20180258152

target.under.test: T1, human GIP receptor (GIPR) (human), P48546
T1 chain: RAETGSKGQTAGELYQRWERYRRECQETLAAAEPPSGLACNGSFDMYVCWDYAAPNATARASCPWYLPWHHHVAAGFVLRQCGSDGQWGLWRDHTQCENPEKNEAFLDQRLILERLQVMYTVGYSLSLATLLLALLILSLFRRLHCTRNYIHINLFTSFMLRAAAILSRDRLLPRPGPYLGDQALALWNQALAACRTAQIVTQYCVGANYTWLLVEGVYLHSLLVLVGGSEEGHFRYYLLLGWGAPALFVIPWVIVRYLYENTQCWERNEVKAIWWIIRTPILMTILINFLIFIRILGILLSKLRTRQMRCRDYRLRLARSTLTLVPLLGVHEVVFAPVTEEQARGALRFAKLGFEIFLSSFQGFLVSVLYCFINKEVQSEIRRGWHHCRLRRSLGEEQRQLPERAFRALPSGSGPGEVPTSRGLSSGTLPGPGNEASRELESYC
method: competition, 125I-GIP(1-42)
condition: modification not given
pKi: −log10 of the molar value. No end group written: not given here.
Parameter threshold = 7. Response is True when pKi meets or exceeds it, else False.

Example results:
GTFISDYSIAMDKIHQQDFVNWLLAQK (not fully specified (C-terminus)) [GIP(4-30)NH2]
True
TFISDYSIAMDKIHQQDFVNWLLAQK (not fully specified (C-terminus)) [GIP(5-30)NH2]
True
FISDYSIAMDKIHQQDFVNWLLAQK (not fully specified (C-terminus)) [GIP(6-30)NH2]
False
DYSIAMDKIHQQDFVNWLLAQK (not fully specified (C-terminus)) [GIP(9-30)NH2]
False

Field: next binder
Request: Would you say AEGTFISDYSIAMDKIHQQDFVNWLLAQK (not fully specified (C-terminus)) [GIP(2-30)NH2] shows pKi at minimum 7?
Response: True
